biological target: HSA (Homo sapiens, UniProt P02768); test: Dansylsarcosine (DS) binding to prepared HSA, fluorescence titration; settings: binding of dansylsarcosine to patients' HSA (chronic liver failure), range over samples
Sequence (P02768 25-609): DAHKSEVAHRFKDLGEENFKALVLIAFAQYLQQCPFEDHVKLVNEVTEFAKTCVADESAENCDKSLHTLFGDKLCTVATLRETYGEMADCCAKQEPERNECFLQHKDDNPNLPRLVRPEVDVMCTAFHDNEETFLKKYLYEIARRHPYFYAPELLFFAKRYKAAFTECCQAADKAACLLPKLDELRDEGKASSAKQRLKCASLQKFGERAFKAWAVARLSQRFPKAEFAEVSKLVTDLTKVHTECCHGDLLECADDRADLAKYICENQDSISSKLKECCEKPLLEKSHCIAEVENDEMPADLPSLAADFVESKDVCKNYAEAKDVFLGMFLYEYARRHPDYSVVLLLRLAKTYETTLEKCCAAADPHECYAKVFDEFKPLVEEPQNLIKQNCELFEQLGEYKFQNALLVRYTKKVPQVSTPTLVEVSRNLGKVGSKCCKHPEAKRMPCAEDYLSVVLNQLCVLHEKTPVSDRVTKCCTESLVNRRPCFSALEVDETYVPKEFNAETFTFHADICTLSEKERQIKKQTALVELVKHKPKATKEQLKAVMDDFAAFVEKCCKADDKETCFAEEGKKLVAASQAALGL
MEASURED QUANTITY: Kd

{"TEST SMILES": "CN(C)c1cccc2c(S(=O)(=O)N(C)CC(=O)O)cccc12", "MEASURED QUANTITY": "Kd", "REPORTED": "13 to 28 µM"}
